test system: Huh-7 HCV replicon cells; experiment: CC50 assay (CellTiter-Glo) in Huh-7 HCV replicon cells; format: cell-based, human; settings: Table 1, 3 days
quantity: CC50

Consider the following illustrative entries.
Ask | Name the reported CC50 value associated with the compound COc1ccc(-c2cnc3nc(N)nc(N4CCN(C(=O)N(C)c5ccccc5)CC4)c3n2)cc1OC
Reply | < 10 µM

Ask | Next compound up: COc1ccc(-c2cnc3nc(NCc4cccs4)nc(N)c3n2)cc1OC
Reply | 10 to 20 µM

Ask | Next compound up: COCCN1CCN(c2nc(N)nc3ncc(-c4ccc(OC)c(OC)c4)nc23)CC1
Reply | > 20 µM

# context switch: different compound, same CC50
Ask | Name the reported CC50 value associated with the compound COc1ccc(-c2cnc3nc(N)nc(N4CCN(C(=O)c5ccncc5)CC4)c3n2)cc1OC
Reply | 10 to 20 µM

====

assay: CC50 assay (CellTiter-Glo) in Huh-7 HCV replicon cells; type: cell-based, human; conditions: human, Table 2
quantity: CC50 at 3 days

Ask | Name the reported CC50 at 3 days value associated with the compound CCOc1nc(N)nc2ncc(-c3ccc(F)cc3)nc12 [Example 131]
Reply | > 20 µM

====

biological target: HCV replicon; assay: Anti-HCV replicon assay (EC50, luciferase); type: cell-based, Hepatitis C virus (HCV); conditions: Table 1; Huh-7 HCV replicon cells, 3 days, luciferase; read-out: EC50
Examples of molecules with documented EC50 follow.

Ask | Name the reported EC50 value associated with the molecule CCN(C(=O)N1CCN(c2nc(N)nc3ncc(-c4ccc(OC)c(OC)c4)nc23)CC1)c1ccccc1
Reply | < 300 nM

Ask | Next molecule up: COc1ccc(-c2cnc3nc(N)nc(N4CCN(C(=O)N5CCCC5)CC4)c3n2)cc1OC
Reply | < 300 nM

Ask | Next molecule up: COc1ccc(-c2cnc3nc(N)nc(N4CCN(CCC#N)CC4)c3n2)cc1OC
Reply | < 300 nM

Ask | Next molecule up: CCCCCOc1ccc(C(=O)N2CCN(c3nc(N)nc4ncc(-c5ccc(OC)c(OC)c5)nc34)CC2)cc1
Reply | < 300 nM

Ask | Next molecule up: COc1ccc(-c2cnc3nc(N)nc(N4CCN(Cc5ccccn5)CC4)c3n2)cc1OC
Reply | 300 to 1000 nM

Ask | Next molecule up: COc1ccc(-c2cnc3nc(N)nc(N4CCN(C(=O)Nc5ccc(C#N)cc5)CC4)c3n2)cc1OC
Reply | < 300 nM

Ask | Next molecule up: COc1ccc(-c2cnc3nc(N)nc(N4CCN(CC5OCCO5)CC4)c3n2)cc1OC
Reply | 300 to 1000 nM

# context switch: different molecule, same EC50
Ask | Name the reported EC50 value associated with the molecule COc1ccc(-c2cnc3nc(N)nc(N4CCN(C(=O)NCCc5cccs5)CC4)c3n2)cc1OC
Reply | < 300 nM

====

target: HCV replicon; test: Anti-HCV replicon assay (EC50, luciferase); format: cell-based, Hepatitis C virus (HCV); settings: Table 2; Huh-7 HCV replicon cells, 3 days, luciferase; read-out: EC50
quantity: EC50

Ask | Identify the measured EC50 of COc1ccc(-c2cnc3nc(N)nc(N4CCOCC4)c3n2)cc1OC for HCV replicon.
Reply | < 300 nM

Ask | Next molecule up: CCOc1nc(N)nc2ncc(-c3ccc(OC)c(OC)c3)nc12
Reply | < 300 nM

# context switch: different molecule, same EC50
Ask | Identify the measured EC50 of COc1ccc(-c2cnc3nc(N)nc(N4CCN(C)CC4)c3n2)cc1OC for HCV replicon.
Reply | < 300 nM

====

Examples of molecules with documented CC50 follow.
test system: Huh-7 HCV replicon cells; test: CC50 assay (CellTiter-Glo) in Huh-7 HCV replicon cells; type: cell-based, human; settings: Table 1, 3 days

Consider the following illustrative entries.
Ask | Name the reported CC50 value associated with the molecule CCOC(=O)CN1CCN(c2nc(N)nc3ncc(-c4ccc(OC)c(OC)c4)nc23)CC1 [Example 98]
Reply | 10 to 20 µM

Ask | Next molecule up: CCOCCN1CCN(c2nc(N)nc3ncc(-c4ccc(OC)c(OC)c4)nc23)CC1 [Example 104]
Reply | > 20 µM

***
Ask | Name the reported CC50 value associated with the molecule COc1ccc(-c2cnc3nc(N)nc(N4CCN(CC(=O)N(C)c5ccccc5)CC4)c3n2)cc1OC [Example 85]
Reply | < 10 µM

Ask | Next molecule up: COc1ccc(-c2cnc3nc(N)nc(N4CCN(Cc5ccc(C)cc5)CC4)c3n2)cc1OC [Example 52]
Reply | > 20 µM

====

Examples of compounds with documented EC50 follow.
target: HCV replicon; assay: Anti-HCV replicon assay (EC50, luciferase); type: cell-based, Hepatitis C virus (HCV); settings: Table 1; Huh-7 HCV replicon cells, 3 days, luciferase; read-out: EC50

Ask | Identify the measured EC50 of COc1ccc(-c2cnc3nc(N)nc(N4CCN(Cc5cccnc5)CC4)c3n2)cc1OC for HCV replicon.
Reply | < 300 nM

***
Ask | Identify the measured EC50 of COc1ccc(-c2cnc3nc(N)nc(N4CCN(C(=O)c5ccncc5)CC4)c3n2)cc1OC for HCV replicon.
Reply | < 300 nM

Ask | Next compound up: COc1ccc(-c2cnc3nc(N)nc(N4CCN(C(=O)c5cc(F)c(Cl)nc5Cl)CC4)c3n2)cc1OC
Reply | < 300 nM

Ask | Next compound up: CCCCNC(=O)N1CCN(c2nc(N)nc3ncc(-c4ccc(OC)c(OC)c4)nc23)CC1
Reply | < 300 nM

====

test system: Huh-7 HCV replicon cells; assay: CC50 assay (CellTiter-Glo) in Huh-7 HCV replicon cells; assay type: cell-based, human; conditions: Table 1, 3 days
quantity: CC50

Consider the following illustrative entries.
Ask | Identify the measured CC50 of COc1ccc(-c2cnc3nc(N)nc(N4CCN(C(=O)Cc5cccs5)CC4)c3n2)cc1OC for Huh-7 HCV replicon cells.
Reply | < 10 µM

Ask | Next molecule up: COc1ccc(-c2cnc3nc(N)nc(N4CCN(C(=O)c5ccoc5)CC4)c3n2)cc1OC
Reply | 10 to 20 µM

Ask | Next molecule up: COc1ccc(-c2cnc3nc(N)nc(N4CCN(C(=O)c5cc(F)c(Cl)nc5Cl)CC4)c3n2)cc1OC
Reply | < 10 µM

Ask | Next molecule up: COc1ccc(-c2cnc3nc(N)nc(N4CCN(C(=O)NCc5ccc(F)cc5)CC4)c3n2)cc1OC
Reply | < 10 µM

Ask | Next molecule up: COc1ccc(-c2cnc3nc(N)nc(N4CCN(C(=O)Cc5ccc(Cl)cc5)CC4)c3n2)cc1OC
Reply | < 10 µM

Ask | Next molecule up: COc1ccc(-c2cnc3nc(N)nc(N4CCN(C(=O)Nc5ccccc5)CC4)c3n2)cc1OC
Reply | < 10 µM

# context switch: different molecule, same CC50
Ask | Identify the measured CC50 of COc1ccc(-c2cnc3nc(N)nc(N4CCN(CCOc5ccccc5)CC4)c3n2)cc1OC for Huh-7 HCV replicon cells.
Reply | > 20 µM

====

test system: HIV IIIb strain; assay: Anti-HIV assay in MT-4 cells; assay type: cell-based; conditions: MT-4 cells infected with HIV IIIb, 5 days, CellTiter-Glo
quantity: EC50

Consider the following illustrative entries.
Ask | Name the reported EC50 value associated with the compound CCOc1nc(N)nc2ncc(-c3ccc(OC)c(OC)c3)nc12 [Example 134]
Reply | > 100 µM

Ask | Next compound up: COc1ccc(-c2cnc3nc(N)nc(N4CCOCC4)c3n2)cc1OC [Example 158]
Reply | > 100 µM

Ask | Next compound up: COc1ccc(-c2cnc3nc(N)nc(N4CCN(C)CC4)c3n2)cc1OC [Example 181]
Reply | > 100 µM

***
Ask | Name the reported EC50 value associated with the compound CCS(=O)(=O)Nc1cccc(-c2cnc3nc(N)nc(N4CCOCC4)c3n2)c1 [Example 201]
Reply | 17.8 µM

Ask | Next compound up: CCC(=O)Nc1ccc(-c2cnc3nc(N)nc(N4CCOCC4)c3n2)cc1 [Example 216]
Reply | > 100 µM

====

system: Huh-7 HCV replicon cells; test: CC50 assay (CellTiter-Glo) in Huh-7 HCV replicon cells; type: cell-based, human; conditions: Table 2, 3 days
Examples of compounds with documented CC50 follow.

Ask | Identify the measured CC50 of CCOc1nc(N)nc2ncc(-c3ccc(OC)c(OC)c3)nc12 for Huh-7 HCV replicon cells.
Reply | > 20 µM

Ask | Next compound up: COc1ccc(-c2cnc3nc(N)nc(N4CCN(C)CC4)c3n2)cc1OC
Reply | 10 to 20 µM

***
Ask | Identify the measured CC50 of COc1ccc(-c2cnc3nc(N)nc(N4CCOCC4)c3n2)cc1OC for Huh-7 HCV replicon cells.
Reply | 10 to 20 µM
